pIC50: −log10 of the molar value.
METRIC: pIC50

# query: pIC50 | item `NC(=O)[C@H](Cc1ccccc1)NC(=O)[C@H](Cc1cc(-c2ccccc2)cc(-c2ccccc2)c1)CP(=O)(O)[C@@H](N)CCc1ccccc1` | system: UniProtKB Q9NZ08 < 4.46

* * *

TARGET DESC: Leucyl-cystinyl aminopeptidase (Homo sapiens, UniProt Q9UIQ6)
Sequence (Q9UIQ6 whole entry): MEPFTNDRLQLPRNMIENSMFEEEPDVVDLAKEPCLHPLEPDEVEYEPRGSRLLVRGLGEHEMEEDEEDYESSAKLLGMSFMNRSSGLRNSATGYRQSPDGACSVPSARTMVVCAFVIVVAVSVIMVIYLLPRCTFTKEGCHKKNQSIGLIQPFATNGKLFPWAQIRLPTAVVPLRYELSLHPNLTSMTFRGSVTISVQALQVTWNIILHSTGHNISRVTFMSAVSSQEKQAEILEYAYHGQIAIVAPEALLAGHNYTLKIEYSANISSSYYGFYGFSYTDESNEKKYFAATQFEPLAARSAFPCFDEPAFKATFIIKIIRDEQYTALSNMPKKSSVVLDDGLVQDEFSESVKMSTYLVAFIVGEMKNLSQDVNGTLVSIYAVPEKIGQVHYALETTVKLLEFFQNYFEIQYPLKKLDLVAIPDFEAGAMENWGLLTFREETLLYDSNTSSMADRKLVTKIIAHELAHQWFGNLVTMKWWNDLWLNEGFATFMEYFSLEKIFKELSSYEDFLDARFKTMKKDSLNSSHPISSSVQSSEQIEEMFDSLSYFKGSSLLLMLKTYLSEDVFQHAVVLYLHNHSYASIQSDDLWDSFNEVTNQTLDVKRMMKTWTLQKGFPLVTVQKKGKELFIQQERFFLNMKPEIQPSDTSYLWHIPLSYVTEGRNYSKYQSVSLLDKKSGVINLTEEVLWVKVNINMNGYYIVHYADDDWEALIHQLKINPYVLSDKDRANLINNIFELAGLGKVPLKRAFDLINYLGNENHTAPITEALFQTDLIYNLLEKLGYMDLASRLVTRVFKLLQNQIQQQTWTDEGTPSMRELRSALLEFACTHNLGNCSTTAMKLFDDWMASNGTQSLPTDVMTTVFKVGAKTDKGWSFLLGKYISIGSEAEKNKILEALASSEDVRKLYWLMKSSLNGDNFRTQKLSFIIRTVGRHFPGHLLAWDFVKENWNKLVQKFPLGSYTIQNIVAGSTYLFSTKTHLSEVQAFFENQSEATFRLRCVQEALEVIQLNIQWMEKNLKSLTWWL
MEASUREMENT PROTOCOL: Inhibition of IRAP (unknown origin) expressed in HEK 293S GnTI(-) cells by in vitro fluorimetric assay
METRIC: pIC50
Here pIC50 is given on a logarithmic scale as minus log10 of the concentration in mol/L.

Bench note: what pIC50 did `C#CC[C@H](CP(=O)(O)[C@@H](N)CCc1ccccc1)C(=O)N[C@@H](Cc1ccccc1)C(N)=O` show? 8.70
